Biological target: Fatty acid-binding protein, heart (Homo sapiens)
Assay: Binding affinity to human FABP3 expressed in Escherichia coli BL21 (DE3) at 10 uM in DMPC liposomes by surface plasmon resonance analysis
pKd: −log10 of the molar value.
Experimental Readout: pKd

[
  {
    "Smiles Repr": "CCCCCCCCCCC/C=C\\CCCCC(=O)O",
    "Assayed System": "Fatty acid-binding protein, heart (Homo sapiens)",
    "Meas Value": 6.40
  }
]

----------
Target: Fatty acid-binding protein, heart (Homo sapiens, UniProt P05413)
Sequence (P05413 whole entry): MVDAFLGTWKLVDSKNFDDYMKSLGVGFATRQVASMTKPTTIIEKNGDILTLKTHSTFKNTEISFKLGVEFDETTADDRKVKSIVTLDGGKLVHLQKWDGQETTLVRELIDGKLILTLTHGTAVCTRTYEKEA
Experiment: Binding affinity to human FABP3 expressed in Escherichia coli BL21 (DE3) in DMPC liposomes by surface plasmon resonance analysis
pKd: −log10 of the molar value.

[
  {
    "Smiles Repr": "CC/C=C\\C/C=C\\C/C=C\\CCCCCCCC(=O)O",
    "pKd": 8.56
  }
]
